testedSystem: gH of HCMV strain TB40/E (human cytomegalovirus strain TB40/E)
measurementProtocol: cell-based or functional assay
IC50, inhibition of TB40/E cell-to-cell spread in ARPE-19 overview
measure: IC50, inhibition of TB40/E cell-to-cell spread in ARPE-19 (µg/mL)

binder	boundSign	resultNumber
2-80 (antibody, V domains shown, also called NAb 2-80) VH: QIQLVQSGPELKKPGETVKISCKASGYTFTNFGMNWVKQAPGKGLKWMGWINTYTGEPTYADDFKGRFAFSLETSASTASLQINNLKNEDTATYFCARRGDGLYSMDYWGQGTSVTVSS VL: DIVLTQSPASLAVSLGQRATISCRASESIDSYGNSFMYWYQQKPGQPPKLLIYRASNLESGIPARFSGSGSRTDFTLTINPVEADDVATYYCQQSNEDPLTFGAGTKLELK	>	400
21E9 (antibody, V domains shown, also called NAb 21E9) VH: QIQLVQSGPELKKPGETVKISCKASGYTFTIYGMNWVKQAPGKGLKWMGWINTYTGEPTYADDFRGRFAFSLETSASTAYLQINNLKNEDTATYFCARKGYYGSSGYFDYWGQGTTLTVSS VL: SIVMTQTPKFLLVSAGDRVTITCKASQSVSNDVSWYQQKPGQSPKLLIYYASNRYTGVPDRFTGSGYGTDFTFTISTVQAEDLAVYFCQQDYSSPWTFGGGTKLEIK	=	157
18F10 (antibody, V domains shown, also called NAb 18F10) VH: QVTLKESGPGILQPSQTLSLTCSFSGFSLSTYGIGIGWIRQPSGKGLEWLAHIWWNDNKNYNTALKSRLTISKDPSNNQVFLKIASVDTADTATYFCARTGYFDVWGAGTTVTVSS VL: DVVLTQTPLSLPVSLGDQVSISCSSSQSLVHSNGNTYIHWYLQKPGQSPKLLIYTVSNRFSGVPDRFSGSGSGTDFTLKISRVEAEDLGLYFCSQSTHVPYTFGGGTKLEIK	=	95
62-100 (antibody, V domains shown, also called NAb 62-100) VH: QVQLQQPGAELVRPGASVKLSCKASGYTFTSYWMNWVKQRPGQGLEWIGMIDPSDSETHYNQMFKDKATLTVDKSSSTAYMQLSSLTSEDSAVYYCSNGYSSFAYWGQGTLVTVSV VL: DIVLTQSPATLSVTPGDSVSLSCRASQSISNNLHWYQQKSHESPRLLIKYASQSISGIPSRFSGSGSGTDFTLSINSVETEDFGKYVCQQSNSWPLTFGSGTKLEIK	=	103
62-11 (antibody, V domains shown, also called NAb 62-11) VH: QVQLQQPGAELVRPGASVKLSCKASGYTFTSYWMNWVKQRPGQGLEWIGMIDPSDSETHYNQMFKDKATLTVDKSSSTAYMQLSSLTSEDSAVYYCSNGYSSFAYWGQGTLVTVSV VL: DVQMTQTTSSLSASLGDRVTISCSASQGISNYLNWYQQKPDGTVKLLIYDTSSLHSGVPSRFSGSGSGTDYSLTISNLEPEDIATYYCQQYSKLPYTFGGGTKLEIK	=	87

These entries and their values trace back to patent US20180230200A1.
